Measured [0]208 mean residue ellipticity, listed per entry.
Assay: Circular dichroism (CD) spectroscopy of linear and stapled peptides in water or 40% TFE/water (Example 3)
Type: physicochemical
Conditions: λ = 208 nm; in 40% TFE/water
Bridges are numbered along the chain shown (N, C = ends).
valueKind: [0]208 mean residue ellipticity (deg cm^2 dmol^−1)

INSERT INTO assay_data (substance, assayvalue) VALUES
  ('Ac-(cyclo-4,8)-NLK[EKIKK]VVKLKDE-NH2 (Ac-NLKEKIKKVVKLKDE-NH2; lactam 4-8; SMILES CC[C@H](C)[C@@H]1NC(=O)[C@H](CCCCN)NC(=O)[C@@H](NC(=O)[C@H](CCCCN)NC(=O)[C@H](CC(C)C)NC(=O)[C@H](CC(N)=O)NC(C)=O)CCC(=O)NCCCC[C@@H](C(=O)N[C@H](C(=O)N[C@H](C(=O)N[C@@H](CCCCN)C(=O)N[C@@H](CC(C)C)C(=O)N[C@@H](CCCCN)C(=O)N[C@@H](CC(=O)O)C(=O)N[C@@H](CCC(=O)O)C(N)=O)C(C)C)C(C)C)NC(=O)[C@H](CCCCN)NC1=O) [Compound 157]', '-1.56E+04'),
  ('Ac-VSKLRSQLVKRKQN-NH2 [Compound 132]', '-1.59E+04'),
  ('Ac-(cyclo-4,8)-VSK[ERSQK]VKRKQN-NH2 (Ac-VSKERSQKVKRKQN-NH2; lactam 4-8; SMILES CC(=O)N[C@H](C(=O)N[C@@H](CO)C(=O)N[C@@H](CCCCN)C(=O)N[C@H]1CCC(=O)NCCCC[C@@H](C(=O)N[C@H](C(=O)N[C@@H](CCCCN)C(=O)N[C@@H](CCCNC(=N)N)C(=O)N[C@@H](CCCCN)C(=O)N[C@@H](CCC(N)=O)C(=O)N[C@@H](CC(N)=O)C(N)=O)C(C)C)NC(=O)[C@H](CCC(N)=O)NC(=O)[C@H](CO)NC(=O)[C@H](CCCNC(=N)N)NC1=O)C(C)C) [Compound 150]', '-1.21E+04');

* * *

Assay: Circular dichroism (CD) spectroscopy of linear and stapled peptides in water or 40% TFE/water (Example 3)
Type: physicochemical
Conditions: λ = 208 nm; in 40% TFE/water
Bridges are numbered along the chain shown (N, C = ends).
valueKind: [0]208 mean residue ellipticity

INSERT INTO results (substance, valuekind, assayvalue) VALUES
  ('Ac-NLKQKIKHVVKLKDE-NH2 [Compound 156]', '[0]208 mean residue ellipticity', '-1.03E+04 deg cm^2 dmol^−1'),
  ('Ac-(cyclo-6,10)-VSKLR[KQLVE]RKQN-NH2 (Ac-VSKLRKQLVERKQN-NH2; lactam 6-10; SMILES CC(=O)N[C@H](C(=O)N[C@@H](CO)C(=O)N[C@@H](CCCCN)C(=O)N[C@@H](CC(C)C)C(=O)N[C@@H](CCCNC(=N)N)C(=O)N[C@H]1CCCCNC(=O)CC[C@@H](C(=O)N[C@@H](CCCNC(=N)N)C(=O)N[C@@H](CCCCN)C(=O)N[C@@H](CCC(N)=O)C(=O)N[C@@H](CC(N)=O)C(N)=O)NC(=O)[C@H](C(C)C)NC(=O)[C@H](CC(C)C)NC(=O)[C@H](CCC(N)=O)NC1=O)C(C)C) [Compound 155]', '[0]208 mean residue ellipticity', '-1.71E+04 deg cm^2 dmol^−1'),
  ('Ac-(cyclo-5,9)-VSKL[ESQLK]KRKQN-NH2 (Ac-VSKLESQLKKRKQN-NH2; lactam 5-9; SMILES CC(=O)N[C@H](C(=O)N[C@@H](CO)C(=O)N[C@@H](CCCCN)C(=O)N[C@@H](CC(C)C)C(=O)N[C@H]1CCC(=O)NCCCC[C@@H](C(=O)N[C@@H](CCCCN)C(=O)N[C@@H](CCCNC(=N)N)C(=O)N[C@@H](CCCCN)C(=O)N[C@@H](CCC(N)=O)C(=O)N[C@@H](CC(N)=O)C(N)=O)NC(=O)[C@H](CC(C)C)NC(=O)[C@H](CCC(N)=O)NC(=O)[C@H](CO)NC1=O)C(C)C) [Compound 151]', '[0]208 mean residue ellipticity', '-1.62E+04 deg cm^2 dmol^−1');

* * *

Measured Molar ellipticity [θ]222, listed per entry.
Assay: Circular dichroism (CD) spectroscopy of HABD2 peptides in Milli-Q water (Example 1)
Type: physicochemical
Conditions: λ = 222 nm; 0.5 mM in Milli-Q water
Bridges are numbered along the chain shown (N, C = ends).
valueKind: Molar ellipticity [θ]222

INSERT INTO measurements (substance, assayvalue) VALUES
  ('H-(cyclo-7,11)-VSKLRS[ELVKK]KQN-NH2 (H-VSKLRSELVKKKQN-NH2; lactam 7-11; SMILES CC(C)C[C@H](NC(=O)[C@H](CCCCN)NC(=O)[C@H](CO)NC(=O)[C@@H](N)C(C)C)C(=O)N[C@@H](CCCNC(=N)N)C(=O)N[C@@H](CO)C(=O)N[C@H]1CCC(=O)NCCCC[C@@H](C(=O)N[C@@H](CCCCN)C(=O)N[C@@H](CCC(N)=O)C(=O)N[C@@H](CC(N)=O)C(N)=O)NC(=O)[C@H](CCCCN)NC(=O)[C@H](C(C)C)NC(=O)[C@H](CC(C)C)NC1=O) [Compound 136]', '−1568.07 deg cm^2 dmol^−1 residue^−1'),
  ('H-(cyclo-4,8)-VSK[ERSQK]VKRKQN-NH2 (H-VSKERSQKVKRKQN-NH2; lactam 4-8; SMILES CC(C)[C@H](N)C(=O)N[C@@H](CO)C(=O)N[C@@H](CCCCN)C(=O)N[C@H]1CCC(=O)NCCCC[C@@H](C(=O)N[C@H](C(=O)N[C@@H](CCCCN)C(=O)N[C@@H](CCCNC(=N)N)C(=O)N[C@@H](CCCCN)C(=O)N[C@@H](CCC(N)=O)C(=O)N[C@@H](CC(N)=O)C(N)=O)C(C)C)NC(=O)[C@H](CCC(N)=O)NC(=O)[C@H](CO)NC(=O)[C@H](CCCNC(=N)N)NC1=O) [Compound 133]', '−2260.92 deg cm^2 dmol^−1 residue^−1');

* * *

Assay: Circular dichroism (CD) spectroscopy of linear and stapled peptides in water or 40% TFE/water (Example 3)
Format: physicochemical
Settings: in water
Bridges are numbered along the chain shown (N, C = ends).
valueKind: alpha-helical character by CD (in words)

INSERT INTO assay_data (substance, assayvalue) VALUES
  ('Ac-(cyclo-4,8)-VSK[ERSQK]VKRKQN-NH2 (Ac-VSKERSQKVKRKQN-NH2; lactam 4-8; SMILES CC(=O)N[C@H](C(=O)N[C@@H](CO)C(=O)N[C@@H](CCCCN)C(=O)N[C@H]1CCC(=O)NCCCC[C@@H](C(=O)N[C@H](C(=O)N[C@@H](CCCCN)C(=O)N[C@@H](CCCNC(=N)N)C(=O)N[C@@H](CCCCN)C(=O)N[C@@H](CCC(N)=O)C(=O)N[C@@H](CC(N)=O)C(N)=O)C(C)C)NC(=O)[C@H](CCC(N)=O)NC(=O)[C@H](CO)NC(=O)[C@H](CCCNC(=N)N)NC1=O)C(C)C) [Compound 150]', 'decreased helicity'),
  ('Ac-(cyclo-8,12)-NLKQKIK[EVVKK]KDE-NH2 (Ac-NLKQKIKEVVKKKDE-NH2; lactam 8-12; SMILES CC[C@H](C)[C@H](NC(=O)[C@H](CCCCN)NC(=O)[C@H](CCC(N)=O)NC(=O)[C@H](CCCCN)NC(=O)[C@H](CC(C)C)NC(=O)[C@H](CC(N)=O)NC(C)=O)C(=O)N[C@@H](CCCCN)C(=O)N[C@H]1CCC(=O)NCCCC[C@@H](C(=O)N[C@@H](CCCCN)C(=O)N[C@@H](CC(=O)O)C(=O)N[C@@H](CCC(=O)O)C(N)=O)NC(=O)[C@H](CCCCN)NC(=O)[C@H](C(C)C)NC(=O)[C@H](C(C)C)NC1=O) [Compound 161]', 'decreased helicity');

* * *

Measured [0]208 mean residue ellipticity at λ=208 nm, listed per entry.
Assay: Circular dichroism (CD) spectroscopy of linear and stapled peptides in water or 40% TFE/water (Example 3)
Format: physicochemical
Settings: 40% TFE/water
valueKind: [0]208 mean residue ellipticity at λ=208 nm (deg cm^2 dmol^−1)

INSERT INTO assay_data (substance, assayvalue) VALUES
  ('Ac-KIKHVVKLKDENSQLKSEVSKLRSQLVKRK-NH2 [Compound 265]', '-2.72E04'),
  ('Ac-(cyclo-11-15, cyclo-16-20)-KIKHVVKLKD[ENSQK][ESEVK]KLRSQLVKRIK-NH2 [Compound 267]', '-3.02E04'),
  ('Ac-(cyclo-10-14, cyclo-15-19)-KIKHVVKLK[KENSE][EKSEK]SKLRSQLVKRK-NH2 [Compound 269]', '-2.65E04'),
  ('Ac-NLKQKIKHVVKLKDENSQLKSEVSKLRSQLVKRKQN-NH2 [Compound 275]', '-3.52E04');
